TARGET ENTITY: Recombinant human ENPP3 protein (Homo sapiens (Human), UniProt O14638)
Sequence (O14638 whole entry): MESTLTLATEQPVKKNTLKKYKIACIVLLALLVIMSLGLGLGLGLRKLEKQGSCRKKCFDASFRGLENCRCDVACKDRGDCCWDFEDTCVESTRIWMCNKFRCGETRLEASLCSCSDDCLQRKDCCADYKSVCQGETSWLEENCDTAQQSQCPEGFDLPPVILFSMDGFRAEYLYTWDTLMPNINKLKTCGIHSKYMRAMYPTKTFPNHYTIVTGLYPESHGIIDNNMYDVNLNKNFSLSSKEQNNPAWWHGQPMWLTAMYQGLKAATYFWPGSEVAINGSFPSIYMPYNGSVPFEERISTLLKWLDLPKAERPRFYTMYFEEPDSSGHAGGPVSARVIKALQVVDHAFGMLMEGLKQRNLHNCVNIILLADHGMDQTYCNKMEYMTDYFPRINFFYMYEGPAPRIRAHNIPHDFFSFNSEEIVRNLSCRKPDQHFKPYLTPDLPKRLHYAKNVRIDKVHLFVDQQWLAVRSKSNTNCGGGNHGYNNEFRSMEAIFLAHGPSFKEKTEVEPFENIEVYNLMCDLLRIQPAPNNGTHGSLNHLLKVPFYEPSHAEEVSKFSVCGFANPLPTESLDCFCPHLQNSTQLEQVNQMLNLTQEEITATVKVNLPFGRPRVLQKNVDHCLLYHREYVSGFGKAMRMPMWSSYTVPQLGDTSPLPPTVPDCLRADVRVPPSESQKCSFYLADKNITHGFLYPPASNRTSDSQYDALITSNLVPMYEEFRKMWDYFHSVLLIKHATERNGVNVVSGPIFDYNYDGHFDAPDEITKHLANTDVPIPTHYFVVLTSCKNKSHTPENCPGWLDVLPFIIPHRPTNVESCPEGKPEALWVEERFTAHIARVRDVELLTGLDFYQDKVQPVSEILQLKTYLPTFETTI
METHOD NOTES: ENPP3 cGAMP Biochemical Assay
CONDITIONS: 70.5 nM ENPP3, 120 μM 2′3′-cGAMP substrate, TR-FRET
pIC50: −log10 of the molar value.
RECORDED ENDPOINT: pIC50

Example entries and their recorded answers appear below.
MOLECULE: C#CCn1nc(Cl)c2c(NCC3CCN([S@@](C)(=N)=O)CC3)ccnc21 [Compound 13C]
RECORDED ENDPOINT: pIC50
DATA VALUE: ≤ 6.00
--
MOLECULE: CCn1nc(Cl)c2c(Nc3ccc(S(N)(=O)=NC4CC4)cc3)ccnc21 (stereo not drawn)
RECORDED ENDPOINT: pIC50
DATA VALUE: ≤ 6.00

Prompt: Report measured pIC50 on Recombinant human ENPP3 protein (Homo sapiens (Human), UniProt O14638); entry: C[S@@](=N)(=O)c1ccc(CNc2ccnc3c2c(Cl)nn3CC#N)cc1
Completion: 7.00 to 8.00

Prompt: Report pIC50 from Recombinant human ENPP3 protein (Homo sapiens (Human), UniProt O14638) testing of CCN=S(N)(=O)c1ccc(Nc2ccnc3c2c(Cl)nn3CC)cc1 (stereo not drawn)
Completion: 6.00 to 7.00

Prompt: Write down measured pIC50 (Recombinant human ENPP3 protein (Homo sapiens (Human), UniProt O14638)) for this molecule. CS(=N)(=O)c1ccc(COc2ccnc3c2c(Cl)nn3CC#N)cc1 (stereo not drawn)
Completion: 6.00 to 7.00

Prompt: Report pIC50 under test system Recombinant human ENPP3 protein (Homo sapiens (Human), UniProt O14638) for CCn1ncc2c(Nc3ccc(S(N)(=O)=NC)cc3)ccnc21 (stereo not drawn) .
Completion: ≤ 6.00

Prompt: Provide pIC50, tested on Recombinant human ENPP3 protein (Homo sapiens (Human), UniProt O14638), for C[S@@](=N)(=O)N1CCC(CNc2ccnc3c2c(Cl)nn3CC#N)CC1 [Compound 13E] .
Completion: 7.00 to 8.00

Prompt: Look up and report pIC50, with Recombinant human ENPP3 protein (Homo sapiens (Human), UniProt O14638) as system, for CN=[S@@](N)(=O)N1CCC(CNc2ccnc3c2c(Cl)nn3CC#N)CC1 [Compound 15H]
Completion: 6.00 to 7.00

Prompt: Fetch value of pIC50 on Recombinant human ENPP3 protein (Homo sapiens (Human), UniProt O14638) for C#CCn1nc(Cl)c2c(NCC3CCN([S@](C)(=N)=O)CC3)ccnc21 [Compound 13B] .
Completion: 7.00 to 8.00

* * *

TARGET ENTITY: Recombinant human ENPP1 protein (Homo sapiens (Human), UniProt P22413)
Sequence (P22413 whole entry): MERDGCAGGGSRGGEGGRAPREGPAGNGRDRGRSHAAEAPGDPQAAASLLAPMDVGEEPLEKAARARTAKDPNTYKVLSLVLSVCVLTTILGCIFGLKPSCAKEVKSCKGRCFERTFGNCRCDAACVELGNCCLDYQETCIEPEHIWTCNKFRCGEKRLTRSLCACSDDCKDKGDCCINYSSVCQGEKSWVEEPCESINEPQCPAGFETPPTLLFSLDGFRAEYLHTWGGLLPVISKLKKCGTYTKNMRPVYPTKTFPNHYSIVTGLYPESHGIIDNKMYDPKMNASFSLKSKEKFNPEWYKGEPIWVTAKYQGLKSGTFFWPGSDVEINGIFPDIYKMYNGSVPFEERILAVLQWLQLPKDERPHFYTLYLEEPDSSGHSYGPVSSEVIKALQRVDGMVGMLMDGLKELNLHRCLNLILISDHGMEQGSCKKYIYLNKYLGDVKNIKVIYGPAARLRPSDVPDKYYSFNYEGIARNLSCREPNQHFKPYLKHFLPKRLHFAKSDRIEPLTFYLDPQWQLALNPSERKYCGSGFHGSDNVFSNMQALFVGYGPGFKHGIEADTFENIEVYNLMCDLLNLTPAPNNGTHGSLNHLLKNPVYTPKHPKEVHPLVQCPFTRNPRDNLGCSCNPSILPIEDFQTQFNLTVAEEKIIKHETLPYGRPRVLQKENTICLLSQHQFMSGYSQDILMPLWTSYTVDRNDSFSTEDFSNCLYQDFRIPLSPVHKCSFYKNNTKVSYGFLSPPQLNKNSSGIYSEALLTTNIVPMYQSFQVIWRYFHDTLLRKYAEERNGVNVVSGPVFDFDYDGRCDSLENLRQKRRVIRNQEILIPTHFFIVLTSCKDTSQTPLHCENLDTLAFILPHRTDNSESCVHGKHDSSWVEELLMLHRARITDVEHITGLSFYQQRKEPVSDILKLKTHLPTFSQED
METHOD NOTES: ENPP1 cGAMP Biochemical Assay
CONDITIONS: 0.5 nM ENPP1, 1000 nM 2′3′-cGAMP substrate, TR-FRET
pIC50: −log10 of the molar value.
RECORDED ENDPOINT: pIC50

MOLECULE: CCn1nc(Br)c2c(NCc3ccc(S(=N)(N)=O)cc3)ccnc21 (stereo not drawn) [Compound 2B]
pIC50: 7.00 to 8.00

Prompt: Report pIC50 on Recombinant human ENPP1 protein (Homo sapiens (Human), UniProt P22413) for this entry: CCn1ncc2c(OCc3ccc(S(N)(=O)=NC)cc3)ccnc21 (stereo not drawn) [Compound 7A]
Completion: 6.00 to 7.00

Prompt: Find the measured pIC50 of CCn1ncc2c(NCc3ccc(S(N)(=O)=NC)cc3)ccnc21 (stereo not drawn) [Compound 3A] with Recombinant human ENPP1 protein (Homo sapiens (Human), UniProt P22413) as test system.
Completion: 6.00 to 7.00

Prompt: For Recombinant human ENPP1 protein (Homo sapiens (Human), UniProt P22413), give the measured pIC50 of the entry CCn1ncc2c(NCc3ccc([S@](N)(=O)=NC)cc3)ccnc21 [Compound 3F]
Completion: 6.00 to 7.00

Prompt: Report pIC50 from Recombinant human ENPP1 protein (Homo sapiens (Human), UniProt P22413) testing of C#CCn1nc(Cl)c2c(NCC3CCN(S(N)(=O)=NC)CC3)ccnc21 (stereo not drawn) [Compound 15D]
Completion: > 8.00

Prompt: Give pIC50; test system Recombinant human ENPP1 protein (Homo sapiens (Human), UniProt P22413); molecule C[S@](=N)(=O)c1ccc(CNc2ccnc3c2c(Cl)nn3CC#N)cc1 [Compound 9G]
Completion: 6.00 to 7.00

Prompt: Given CCn1ncc2c(Oc3ccc(S(N)(=O)=NCC4CC4)cc3)ccnc21 (stereo not drawn) [Compound 16A] , report its pIC50 on Recombinant human ENPP1 protein (Homo sapiens (Human), UniProt P22413).
Completion: ≤ 6.00

Prompt: Quote Recombinant human ENPP1 protein (Homo sapiens (Human), UniProt P22413) pIC50 for entry C[S@@](=N)(=O)N1CCC(CNc2ccnc3c2c(Cl)nn3CC#N)CC1 [Compound 13E] .
Completion: > 8.00

Prompt: Provide pIC50, recorded with Recombinant human ENPP1 protein (Homo sapiens (Human), UniProt P22413), of CN=S(N)(=O)c1ccc(CNc2ccnc3c2c(Cl)nn3CC#N)cc1 (stereo not drawn) [Compound 12B]
Completion: > 8.00

* * *

TARGET ENTITY: Recombinant human ENPP3 protein (Homo sapiens (Human))
METHOD NOTES: ENPP3 cGAMP Biochemical Assay
CONDITIONS: 70.5 nM ENPP3, 120 μM 2′3′-cGAMP substrate, TR-FRET
pIC50: −log10 of the molar value.
RECORDED ENDPOINT: pIC50

Past entries and their recorded results:
MOLECULE: C#CCn1nc(Cl)c2c(N(C)Cc3ccc([S@](C)(=N)=O)cc3)ccnc21 [Compound 9B]
pIC50: 7.00 to 8.00
--
MOLECULE: C#CCn1nc(Cl)c2c(NCC3CCN([S@](C)(=O)=NC#N)CC3)ccnc21 [Compound 14J]
pIC50: ≤ 6.00
--
MOLECULE: CCn1ncc2c(NCc3ccc(S(=N)(N)=O)cc3)ccnc21 (stereo not drawn) [Compound 2A]
pIC50: ≤ 6.00
--
MOLECULE: CCn1nc(Cl)c2c(NCC3CCN(S(=N)(N)=O)CC3)ccnc21 (stereo not drawn) [Compound 1C]
pIC50: ≤ 6.00

Prompt: Please report the measured pIC50 for CCn1nc(Cl)c2c(Nc3ccc(S(N)(=O)=NC(C)C)cc3)ccnc21 (stereo not drawn) [Compound 5H]
Completion: 6.00 to 7.00

Prompt: Recall and state the measured pIC50 for C[S@](=N)(=O)c1ccc(CNc2ccnc3c2c(Cl)nn3CC#N)cc1 [Compound 9G] .
Completion: ≤ 6.00

Prompt: Report pIC50, nothing else, for this molecule: CN[S@@](=N)(=O)c1ccc(CNc2ccnc3c2c(Cl)nn3CC#N)cc1 [Compound 10F]
Completion: ≤ 6.00

Prompt: Give the measured pIC50 for CCn1nc(Cl)c2c(NCc3ccc([S@](=N)(=O)CCOC)cc3)ccnc21 [Compound 9N]
Completion: ≤ 6.00

Prompt: Provide measured pIC50 value, entry: CCn1nc(Cl)c2c(Nc3ccc(S(=N)(N)=O)cc3)ccnc21 (stereo not drawn) [Compound 5C]
Completion: 6.00 to 7.00

* * *

TARGET ENTITY: Recombinant human ENPP3 protein (Homo sapiens (Human))
METHOD NOTES: ENPP3 cGAMP Biochemical Assay
CONDITIONS: 70.5 nM ENPP3, 120 μM 2′3′-cGAMP substrate, TR-FRET
pIC50: −log10 of the molar value.
This section presents compounds with their documented pIC50 values.

Previously resolved entries follow.
COMPOUND: C#CCn1nc(Cl)c2c(NCc3ccc(S(C)(=O)=NC)cc3)ccnc21 (centres unmarked) [Compound 10A]
DATA VALUE: ≤ 6.00
--
COMPOUND: C#CCn1nc(Cl)c2c(NCc3ccc([S@](C)(=N)=O)cc3)ccnc21
DATA VALUE: ≤ 6.00
--
COMPOUND: CCn1nc(Cl)c2c(NCC3CCN(S(=N)(=O)CCOC)CC3)ccnc21 (centres unmarked) [Compound 14B]
DATA VALUE: ≤ 6.00

Next up:
Prompt: Indicate its recorded pIC50; the compound in question is C#CCn1nc(Cl)c2c(NCc3c(F)cc(S(N)(=O)=NC)cc3F)ccnc21 (centres unmarked)
Completion: 6.00 to 7.00

* * *

TARGET ENTITY: carbonic anhydrase II enzyme (Homo sapiens (Human))
RECORDED ENDPOINT: IC50

Example entries begin here.
COMPOUND: N=S(N)(=O)c1ccc(CNc2ccnc3[nH]nc(-c4ccccc4)c23)cc1 (stereo not shown)
DATA VALUE: 100 to 1000 nM
--
COMPOUND: C#CCn1nc(Cl)c2c(NCc3ccc(S(N)(=O)=NC#N)cc3)ccnc21 (stereo not shown) [Compound 12I]
DATA VALUE: ≥ 1000 nM
--
COMPOUND: CCn1ncc2c(NCc3ccc(S(N)(=O)=NC#N)cc3)ccnc21 (stereo not shown) [Compound 12G]
DATA VALUE: ≥ 1000 nM

Prompt: State, for carbonic anhydrase II enzyme (Homo sapiens (Human)), measured IC50 of the compound listed here: C#CCn1nc(Cl)c2c(NCc3ccc([S@@](=N)(=O)NC#N)cc3)ccnc21 [Compound 12K]
Completion: 100 to 1000 nM
